- Tested on: SARS2
- Format: cell-based, SARS-CoV-2
- PROTOCOL_CONDITIONS: average of Exp 1-2 (SMW491, SMW492), n 4, 5 uM
Mark T only when Infection Data, Average, Mean stays strictly below 50%. Values equal to the cut-off are F.

Record excerpt, results attached:
INSERT INTO results (compound, class_label) VALUES
  ('CCN(CC)CCN(Cc1cc(C)c(Br)s1)Cc1cc(C)c(Br)s1', 'F'),
  ('CCN(CC)CCN(Cc1ccncc1)C(=O)c1cccs1', 'F'),
  ('CN(C)CCCN(Cc1cccs1)C(=O)c1cccs1', 'F'),
  ('CCN(CC)CCN(Cc1ccccn1)C(=O)c1cccs1', 'F');

Query :: Field: below-cutoff. Rule: recorded Infection Data, Average, Mean strictly less than 50%. Subject: COc1ccc(CNCCc2ccccc2F)c(OCC(O)CN2CCN(C)CC2)c1 (racemic)
Result :: T

====

So I've got a bunch of molecules here, and I need their Relative cell count to DMSO controls, Average 10 μM values.
- Test system: cells (nuclei count)
- PROTOCOL_CONDITIONS: 10 μM; toxicity data; 100=DMSO control

Examples with answers:
INSERT INTO assay_data (molecule, observed) VALUES
  ('Cc1ccc(CN(CCN(C)C)Cc2cc(C#CCO)cs2)s1 [SILCS1]', 108.52),
  ('Cc1ccc(CN(CCN(C)C)Cc2ccccc2)o1 [SILCS11]', 120.55);

For every item below, please supply its Relative cell count to DMSO controls, Average 10 μM.
1. CN(C)CCCN(Cc1cccs1)C(=O)c1cccs1 [SILCS40]
2. CN1CCN(CC(O)COc2c(CNCCc3ccccc3F)cccc2C2CCCCC2)CC1 (centres unmarked) [SILCS4]
3. COc1ccc(C2NC(=O)NC(C)=C2C(=O)NCC2CCC2)cc1OC (centres unmarked) [SILCS64]

Result ::
[92.49, 122.04, 92.78]

====

- Tested on: cells (nuclei count)
- PROTOCOL_CONDITIONS: 25 μM; toxicity data; 100=DMSO control
So I've got a bunch of compounds here, and I need their Relative cell count to DMSO controls, Average 25 μM values.
One number for each entry.

Examples with answers:
INSERT INTO results (compound, observed) VALUES
  ('COc1ccc(C2NC(=O)NC(C)=C2C(=O)NCc2ccccc2)cc1OC (centres unmarked)', 102.04),
  ('COC(=O)c1csc(CN(CCN(C)C)Cc2ccccc2)c1', 104.38),
  ('COc1ccc(CNCCc2ccccc2F)c(OCC(O)CN2CCN(C)CC2)c1 (centres unmarked) [SILCS46]', 117.77);

For every item below, please supply its Relative cell count to DMSO controls, Average 25 μM.
1. COc1ccc(CNCCc2ccccc2F)c(OCC(O)CN2CCN(C)CC2)c1 (centres unmarked) [SILCS45]
2. CC1=C(C(=O)NCc2ccccc2)C(c2ccc(C)o2)NC(=O)N1 (centres unmarked)

Result ::
1. 119.79
2. 93.65

====

- Test system: cells (nuclei count)
- PROTOCOL_CONDITIONS: 5 μM; toxicity data; 100=DMSO control
PROPERTY_MEASURED: Relative cell count to DMSO controls, Average 5 μM
Give bare numbers.

Examples with answers:
INSERT INTO assay_data (molecule, observed) VALUES
  ('COc1ccc(C2NC(=O)NC(C)=C2C(=O)NCC2CCCCC2)cc1OC (stereo not drawn) [SILCS63]', 114.55),
  ('Cc1ccc(CN(CCN(C)C)Cc2cc(C#CCO)cs2)s1 [SILCS1]', 99.54),
  ('Cc1ccc(CN(CCN(C)C)Cc2ccccc2)o1 [SILCS11]', 106.15),
  ('CN1CCN(CC(O)COc2c(CNCCc3ccccc3F)cccc2C2CCCCC2)CC1 (stereo not drawn) [SILCS4]', 123.91),
  ('CCN(CC)CCN(Cc1ccccc1)Cc1ccc(C)o1 [SILCS23]', 129.2),
  ('CN(C)CCN(Cc1ccccc1)Cc1cc(C#CCO)cs1 [SILCS5]', 108.79);

For every item below, please supply its Relative cell count to DMSO controls, Average 5 μM.
1. Cc1cc(CN(CCN(C)C)Cc2ccncc2)sc1Br [SILCS14]
2. OC(COc1c(CNCCc2ccccc2F)cccc1N1CCNCC1)CN1CCCC1 (stereo not drawn) [SILCS22]
3. CC1=C(C(=O)NCC2CCCCC2)C(c2cc(C)c(Br)s2)NC(=O)N1 (stereo not drawn) [SILCS68]
4. Cc1ccc(CN(CCN(C)C)Cc2ccc(CO)o2)s1 [SILCS13]

Result ::
103.93
125.64
114.63
107.19

For every item below, please supply its Relative cell count to DMSO controls, Average 5 μM.
1. CCN(CC)CCN(Cc1ccncc1)C(=O)c1cccs1 [SILCS38]
2. CCN(CC)CCN(Cc1cccs1)C(=O)c1cccs1 [SILCS34]
3. COc1ccc(CNCCc2ccccc2F)c(OCC(O)CN2CCN(C)CC2)c1 (stereo not drawn) [SILCS46]
4. CN1CCN(CC(O)COc2cccc(N3CCCCC3)c2CNCCc2ccccc2F)CC1 (stereo not drawn) [SILCS10]
5. CN(C)CCN(Cc1ccsc1)Cc1ccc(CO)o1 [SILCS9]
6. COc1ccc(CNCCc2ccccc2F)c(OCC(O)CN2CCCC2)c1 (racemic) [SILCS43]

Result ::
110
99.62
131.17
141.21
103.56
151.78

====

- Tested on: SARS2
- Format: cell-based, SARS-CoV-2
- PROTOCOL_CONDITIONS: SARS2, 25 μM
Mark Criterion met only when Percentage Inhibition Average 25 μM stays strictly below 70%. Values equal to the cut-off are Criterion not met.

INSERT INTO assay_data (molecule, class_label) VALUES
  ('Cc1ccc(CN(CCN(C)C)Cc2cc(C#CCO)cs2)s1', 'Criterion met'),
  ('COC(=O)c1csc(CN(CCN(C)C)Cc2cccs2)c1', 'Criterion met');

Query :: Field: below-cutoff. Rule: recorded Percentage Inhibition Average 25 μM strictly less than 70%. Subject: COc1ccc(C2NC(=O)NC(C)=C2C(=O)NC2CCCCCC2)cc1OC (centres unmarked)
Result :: Criterion met

Query :: Next: CC1=C(C(=O)NCC2CCCCC2)C(c2cccs2)NC(=O)N1 (centres unmarked)
Result :: Criterion met

Query :: Next: Cc1ccc(CN(CCN(C)C)Cc2ccc(C)s2)o1
Result :: Criterion met

Query :: Next: CCN(CC)CCN(Cc1ccccn1)Cc1ccc(C)o1
Result :: Criterion met

Query :: Next: CCOc1cccc(CNCCc2ccccc2F)c1OCC(O)CN1CCN(C)CC1 (centres unmarked)
Result :: Criterion not met

====

- Test system: Influenza virus
- ASSAY_TEXT: organism not typed
- Type: cell-based, influenza A virus
- PROTOCOL_CONDITIONS: 10 μM; upper part of table (FIG. 5 data), plaque assay
So I've got a bunch of molecules here, and I need their Influenza virus titer, 10 μM values.
Give bare numbers, in PFU/virus/ml.

INSERT INTO measurements (molecule, observed) VALUES
  ('COCCCNCc1ccc(OC)cc1OCC(O)CN1CCN(C)CC1 (stereo not drawn)', 100000),
  ('COc1ccc(CNCCc2ccccc2C)c(OCC(O)CN2CCN(C)CC2)c1 (stereo not drawn)', 500);

For every item below, please supply its Influenza virus titer, 10 μM.
1. COc1ccc(CNC2CCCCCCC2)c(OCC(O)CN2CCN(C)CC2)c1 (stereo not drawn)
2. COc1ccc(CNCCCn2ccnc2C)c(OCC(O)CN2CCN(C)CC2)c1 (stereo not drawn)
3. COc1ccc(CNCCc2ccccc2Cl)c(OCC(O)CN2CCN(C)CC2)c1 (stereo not drawn)
4. COc1ccc(CNC2CCCCC2)c(OCC(O)CN2CCN(C)CC2)c1 (stereo not drawn)
5. COc1ccc(CNCCCn2ccnc2)c(OCC(O)CN2CCN(C)CC2)c1 (stereo not drawn)
6. COc1ccc(CNC2CCCC2)c(OCC(O)CN2CCN(C)CC2)c1 (stereo not drawn)
7. COc1ccc(CNCCc2cccnc2)c(OCC(O)CN2CCCCCCC2)c1 (stereo not drawn)

Result ::
3000
240000
7000
40000
36000
60000
200000

====

- Tested on: cells (nuclei count)
- PROTOCOL_CONDITIONS: Average of Exp 1-3, n 9, 1 uM
So I've got a bunch of compounds here, and I need their Toxicity Data, Average, Mean values.
One number for each entry, in %.

INSERT INTO measurements (compound, observed) VALUES
  ('CCOc1cccc(CNCCc2ccccc2F)c1OCC(O)CN1CCN(C)CC1 (stereo not shown)', 114.70),
  ('OC(COc1c(CNCCc2ccccc2F)cccc1N1CCNCC1)CN1CCCC1 (stereo not shown)', 126.41),
  ('CCN(CC)CCN(Cc1ccccc1)Cc1ccc(C)o1', 123.69),
  ('Cc1cc(CN(CCN(C)C)Cc2ccsc2)oc1C', 109.07),
  ('COc1ccc(CNCCc2ccccc2F)c(OCC(O)CN2CCN(C)CC2)c1 (racemic) [UMB18G]', 108.03);

For every item below, please supply its Toxicity Data, Average, Mean.
1. CCN(CC)CCN(Cc1ccc(C)o1)Cc1cccs1
2. Cc1ccc(CN(CCN(C)C)Cc2cc(C#CCO)cs2)s1

Result ::
1: 133.02; 2: 98.82

Data provenance is patent US20240132484A1.
